The reported measurements were obtained from patent US10179761B2.

# study.system: UniProtKB Q99720
# assay.explanation: σ1 binding assay, Jurkat cell membranes, [3H](+)-pentazocine
# recorded.conditions: hydrochloride salts; mean of 2 or 3 independent experiments; Ki from IC50 (Cheng-Prusoff); read-out: Sigma 1 Ki
pKi: −log10 of the molar value.
Kind request: treat 8 as inclusive, so pKi at 8 or higher is TRUE, anything lower is FALSE.

As a guide, the following entries are already answered.
>  <smiles.data>
CN(CCC(=O)NCc1cccc(Cl)c1)Cc1ccccc1

>  <study.system>
UniProtKB Q99720

>  <label.value>
TRUE

$$$$
>  <smiles.data>
CN(CCCNC(=O)c1ccc(Cl)cc1)Cc1ccccc1

>  <study.system>
UniProtKB Q99720

>  <label.value>
TRUE

$$$$
>  <smiles.data>
CN(CCCNC(=O)c1cc(Cl)cc(Cl)c1)Cc1ccccc1

>  <study.system>
UniProtKB Q99720

>  <label.value>
FALSE

$$$$
>  <smiles.data>
CN(CCCNC(=O)c1ccc(Cl)cc1)CCc1ccccc1

>  <study.system>
UniProtKB Q99720

>  <label.value>
TRUE

$$$$

Query compound follows.
Ask: Determine whether this compound has pKi no lower than 8: O=C(NCCCNCN1Cc2ccccc2C1)c1ccc(Cl)cc1
Result: FALSE

---

# study.system: σ1 receptors (Homo sapiens (Human), UniProt Q99720)
# Sequence (Q99720 whole entry): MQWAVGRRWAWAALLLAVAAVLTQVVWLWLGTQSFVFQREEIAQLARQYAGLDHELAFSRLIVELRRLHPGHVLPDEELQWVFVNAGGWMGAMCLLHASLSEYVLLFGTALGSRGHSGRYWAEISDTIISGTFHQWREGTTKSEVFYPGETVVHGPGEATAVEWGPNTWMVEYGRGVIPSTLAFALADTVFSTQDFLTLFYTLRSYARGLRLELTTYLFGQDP
# assay.explanation: σ1 binding assay, Jurkat cell membranes, [3H](+)-pentazocine
# recorded.conditions: selectivity, Ki sigma 2 / Ki sigma 1
# Protocol: The σ binding assays were performed according to Ganapathy et al. (Ganapathy, M. E.; Prasad, P. D.; Huang, W.; Seth, P.; Leibach, F. H.; Ganapathy, V. Molecular and ligand-binding characterization of the sigma-receptor in the Jurkat human T lymphocyte cell line. J. Pharmacol. Exp. Ther. 1999, 289, 251-260). […] Nonspecific binding was determined, in both assays, under similar conditions, but in presence of 10 μM unlabeled haloperidol. […]
Returns one of rule met or rule not met; rule met when Ratio σ2/σ1 is >= 50.

>  <smiles.data>
CN(CCC(=O)NCc1ccc(C#N)cc1)Cc1ccccc1

>  <label.value>
rule met

$$$$
>  <smiles.data>
CN(CCCNC(=O)c1ccc(Cl)cc1Cl)Cc1ccccc1

>  <label.value>
rule met

$$$$
>  <smiles.data>
CN(CCC(=O)NCc1cccc(Cl)c1)Cc1ccccc1

>  <label.value>
rule met

$$$$
>  <smiles.data>
CN(CCNC(=O)c1ccc(Cl)cc1Cl)Cc1ccccc1

>  <label.value>
rule not met

$$$$
>  <smiles.data>
CN(CCC(=O)NCc1ccc(Cl)cc1Cl)Cc1ccccc1

>  <label.value>
rule met

$$$$

Ask: Kindly determine if Ratio σ2/σ1 recorded for CN(CCCNC(=O)c1ccc(F)cc1)Cc1ccccc1 is above or exactly 50.
Result: rule not met

Ask: Could you tell me if the measured Ratio σ2/σ1 of CN(CCCNC(=O)c1cccc(Cl)c1)Cc1ccccc1 reaches 50 or more?
Result: rule not met

---

# study.system: σ2 receptors (Homo sapiens (Human), UniProt Q5BJF2)
# Sequence (Q5BJF2 whole entry): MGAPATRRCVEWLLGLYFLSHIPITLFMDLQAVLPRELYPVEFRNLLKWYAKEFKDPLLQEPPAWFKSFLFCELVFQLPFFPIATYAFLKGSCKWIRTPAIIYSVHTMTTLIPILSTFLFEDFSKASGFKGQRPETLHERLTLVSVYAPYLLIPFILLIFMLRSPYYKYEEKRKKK
# assay.explanation: σ2 binding assay, Jurkat cell membranes, [3H]-DTG in presence of (+)-pentazocine
# recorded.conditions: hydrochloride salts; mean of 2 or 3 independent experiments; Ki from IC50 (Cheng-Prusoff); read-out: Sigma 2 Ki
# Experimental: The σ binding assays were performed according to Ganapathy et al. (Ganapathy, M. E.; Prasad, P. D.; Huang, W.; Seth, P.; Leibach, F. H.; Ganapathy, V. Molecular and ligand-binding characterization of the sigma-receptor in the Jurkat human T lymphocyte cell line. J. Pharmacol. Exp. Ther. 1999, 289, 251-260). […] Nonspecific binding was determined, in both assays, under similar conditions, but in presence of 10 μM unlabeled haloperidol. […]
outcome.measure: pKi
One number for each entry, as −log10 of the molar value.

Solved entries:
>  <smiles.data>
CN(CCCNC(=O)c1ccc(Cl)cc1Cl)Cc1ccccc1

>  <pKi>
6.51

$$$$
>  <smiles.data>
CN(CCCNC(=O)c1ccc(Cl)cc1)Cc1ccccc1

>  <pKi>
6.72

$$$$
>  <smiles.data>
CN(CCNC(=O)c1ccc([N+](=O)[O-])cc1)Cc1ccccc1

>  <pKi>
5.85

$$$$

Would you mind listing pKi for each of the following molecules?
1. CN(CCCNC(=O)c1ccc(F)cc1)Cc1ccccc1
2. CN(CCNC(=O)c1ccc(Cl)cc1Cl)Cc1ccccc1
3. CN(CCNC(=O)c1ccc(Cl)cc1)Cc1ccccc1
4. CN(CCCNC(=O)c1cc(Cl)cc(Cl)c1)Cc1ccccc1
5. CN(CCCNC(=O)c1ccc(Cl)cc1)CCc1ccccc1
6. CN(CCCNC(=O)c1cccc(Br)c1)Cc1ccccc1
7. CN(CCCNC(=O)c1cccc(Cl)c1)Cc1ccccc1

Result:
1: 6.33; 2: 6.96; 3: 6.07; 4: 7.32; 5: 6.70; 6: 6.46; 7: 6.47

Ask: Look up pKi for this molecule: CN(CCNC(=O)c1ccc(C#N)cc1)Cc1ccccc1
Result: 6.77

---

# study.system: σ1 receptors (Homo sapiens (Human))
# assay.explanation: σ1 binding assay, Jurkat cell membranes, [3H](+)-pentazocine
# recorded.conditions: selectivity, Ki sigma 2 / Ki sigma 1
outcome.measure: Ratio σ2/σ1
Give bare numbers.

Example cases with answers are listed next.
>  <molecule>
CN(CCCNC(=O)c1cc(Cl)cc(Cl)c1)Cc1ccccc1 [Compound 3.1.26]

>  <assay.result>
2

$$$$
>  <molecule>
CN(CCCNC(=O)c1ccc(Cl)cc1)CCc1ccccc1 [Compound 3.1.12]

>  <assay.result>
47

$$$$
>  <molecule>
CN(CCC(=O)NCc1ccc(Cl)cc1)Cc1ccccc1 [Compound 3.4a]

>  <assay.result>
241

$$$$

Query molecule follows.
Ask: Given CN(CCCNC(=O)c1cccc(Br)c1)Cc1ccccc1 [Compound 3.1.21] , state its recorded Ratio σ2/σ1.
Result: 90
